- Tested on: Wolbachia pipientis
- ASSAY PROCEDURE: Anti-Wolbachia Cell-Based Screen
- Assay type: functional
- Set-up: scale not given: in the data most compounds retested in dose-response had high values
- PARTICULARS: 5 µM
In all, about 48,000 compounds went through this assay and about 13,000 (27%) showed an effect of 50% or more. This is one part of the list.
Property: Percent Effect; scope: individual compounds
The reply must contain the numeric value and, after it, the unit.

1) Cc1ccc(-c2nc3c([nH]2)CCNC3C(=O)O)c2cccnc12 (stereo not drawn) :: -6.719%
2) CNC(=O)CS(=O)(=O)C1CCN(S(=O)(=O)c2ccccc2Cl)CC1 :: 17.8%

Field: next compound
Query string: # get_value(readout='Percent Effect', item= CCS(=O)(=O)N1CCC(OC)c2ccccc2N(CC(=O)NC)C(=O)C1 (stereo not drawn) )
Result string: 115.1%
